The reported numbers originate from patent US20220125947A1.

EXPERIMENTAL SYSTEM: T1, T cell receptor (TCR) Vγ9 (TRGV9) (human, UniProt Q99603 21-122); note: test concentration or dose not given here
T1 chain (looked up): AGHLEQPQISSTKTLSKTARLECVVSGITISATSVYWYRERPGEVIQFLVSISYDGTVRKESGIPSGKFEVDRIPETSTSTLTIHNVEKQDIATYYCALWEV
ASSAY SUMMARY: cell-based or functional assay
READOUT: CD71+ (Vg9+ cells), flow staining (%)
Numbers only here, please. The scale is %.

Notebook: VG9B98 (antibody, human IgG1, kappa, V domains shown) VH: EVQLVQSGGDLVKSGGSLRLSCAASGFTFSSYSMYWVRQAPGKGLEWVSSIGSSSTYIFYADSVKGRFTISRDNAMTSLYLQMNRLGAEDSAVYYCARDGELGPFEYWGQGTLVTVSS VL: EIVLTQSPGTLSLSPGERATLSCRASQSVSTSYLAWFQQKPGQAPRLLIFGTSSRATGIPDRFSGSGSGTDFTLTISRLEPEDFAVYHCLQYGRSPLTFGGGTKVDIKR , CD71+ (Vg9+ cells), flow staining read as 90.5

Now for another entry.
Notebook: VG9B73 (antibody, human IgG1, kappa, V domains shown) VH: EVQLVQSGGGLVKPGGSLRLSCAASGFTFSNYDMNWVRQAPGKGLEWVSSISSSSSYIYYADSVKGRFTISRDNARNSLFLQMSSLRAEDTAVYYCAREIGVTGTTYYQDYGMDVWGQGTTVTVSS VL: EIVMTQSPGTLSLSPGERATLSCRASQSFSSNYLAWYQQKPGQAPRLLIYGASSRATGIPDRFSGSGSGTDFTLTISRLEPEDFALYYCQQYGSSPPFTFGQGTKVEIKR , CD71+ (Vg9+ cells), flow staining read as 94.1
